# abundance fitness values compiled below
B1: POU domain, class 3, transcription factor 2, residues 262 to 338; numbered along this chain, P20265 (parent)
chain: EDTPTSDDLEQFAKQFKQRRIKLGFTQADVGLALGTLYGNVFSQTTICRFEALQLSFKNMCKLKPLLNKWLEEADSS

variants of: B1; experiment: abundance fitness (aPCA) (normalised: wild type 0, dead -1); higher = more abundant; growth selection in yeast, the domain comes from the species named; conditions: Homo sapiens

>  <MUTATION_SPEC>
Y38F

>  <abundance fitness>
-0.036

$$$$
>  <MUTATION_SPEC>
K64E

>  <abundance fitness>
-0.3

$$$$
>  <MUTATION_SPEC>
L63M

>  <abundance fitness>
0.004

$$$$
>  <MUTATION_SPEC>
L23E

>  <abundance fitness>
-0.578

$$$$
>  <MUTATION_SPEC>
F16R

>  <abundance fitness>
-0.69

$$$$
>  <MUTATION_SPEC>
L53D

>  <abundance fitness>
-0.411

$$$$
